Here, each record is paired with measured growth data.
# Tested on: SK-OV-3 ovarian
# method.notes: NCI-60 one-dose screen, 48 h (100 = growth as untreated, 0 = no growth, -100 = all killed)
# assay.setup: 10 µM unless noted
About 83,000 compounds went through this panel and 20% of them were active in at least one assay; those are over-represented in the sample as a whole. The source made the active and inactive calls. How the source made its calls: active means growth percent below 10; inactive means the rest.
result.type: growth

INSERT INTO assay_data (compound, reported_value) VALUES
  ('Nc1ncc(-c2ccc3ncnc(Nc4cccc(Cl)c4)c3c2)cn1', '-10% (active)'),
  ('C=C1C(=O)O[C@H]2[C@H]1CC/C(COC(=O)NCc1ccc(Cn3c(=O)sn(CCCCC)c3=O)cc1)=C\CC[C@@]1(C)O[C@@H]21', '93.6% (inactive)'),
  ('Clc1ccc(/C=N\N=C\c2ccc(Cl)c(Cl)c2)cc1Cl', '87.4% (inactive)'),
  ('CCCCCN1C(=O)/C(=c2\sc3n(c2=O)C2C(NN=3)N(CC)C(=O)N2CC)c2ccccc21 (stereo unspecified)', '13.3% (inactive)'),
  ('O=C(Nc1ccccc1)Nc1ncnc2c1ncn2-c1ccc(Cl)cc1', '75.4% (inactive)'),
  ('CCOC(=O)c1c(C(=O)c2cn(C)c3ccc(Br)cc23)c(-c2cn(C)c3ccc(Br)cc23)n(NC(=O)OC(C)(C)C)c1C', '54.8% [100 µM] (inactive)'),
  ('COc1ccc(C2=Nc3c(N)nc(N)nc3NC(c3cccc(Nc4ccnc5cc(C(F)(F)F)ccc45)c3)C2)cc1 (stereo unspecified)', '84% (inactive)'),
  ('COc1ccc(C(O)c2cc3c(N)c(C(=O)Nc4cccc(Br)c4)sc3nc2C)cc1 (stereo unspecified)', '17.9% (inactive)'),
  ('COc1ccc(/C=C(\C#N)n2nnc3cc(Cl)ccc32)cc1', '44.4% (inactive)'),
  ('COc1ccc(-c2ccc(=O)oc2-c2cc(OC)c(OC)c(OC)c2)cc1O', '25.9% (inactive)'),
  ('O=C(Nc1cccc2ccccc12)NC1CC1', '97.1% (inactive)'),
  ('C=C1C(=O)O[C@H]2[C@H]1CC/C(COC(=O)c1cc3ccccc3s1)=C\CC[C@@]1(C)O[C@@H]21', '85.3% (inactive)'),
  ('N=C(N)c1ccc(-c2ccc(-c3ccc(Cl)c(Cl)c3)s2)nc1', '86.6% (inactive)'),
  ('O=[N+]([O-])c1ccc(O)cc1Br', '101% (inactive)'),
  ('COc1ccc(Nc2ncc(Br)c(NCCCNC(=O)C3CCCC3)n2)cc1', '30.6% (inactive)'),
  ('O=C(CSC(=S)n1cnnc1)NC(=O)c1ccccc1', '105% (inactive)'),
  ('CCOC(=O)c1c(NC(=O)c2cccc(C(F)(F)F)c2)sc2c(CN(C)C)c(O)ccc12', '101% (inactive)'),
  ('COc1cc(OCc2cccc(Br)c2C)cc(OC)c1C=O', '94.8% (inactive)'),
  ('Cc1c(-c2ccc(O)cc2)n(Cc2ccc(OCCN3CCCCCC3)cc2)c2ccc(O)cc12', '81.3% (inactive)'),
  ('CC1CCc2c(C(=O)Nc3ncc(Cc4cccc([N+](=O)[O-])c4)s3)csc2C1 (stereo unspecified)', '21.6% (inactive)'),
  ('COC(CC(F)F)c1cn(S(=O)(=O)c2ccc(C)cc2)c2ccccc12 (stereo unspecified)', '18.1% (inactive)');
